subjectOfTest: IKZF2 (Homo sapiens (Human), UniProt Q96SW2+Q9UKS7)
Sequence (Q9UKS7 whole entry): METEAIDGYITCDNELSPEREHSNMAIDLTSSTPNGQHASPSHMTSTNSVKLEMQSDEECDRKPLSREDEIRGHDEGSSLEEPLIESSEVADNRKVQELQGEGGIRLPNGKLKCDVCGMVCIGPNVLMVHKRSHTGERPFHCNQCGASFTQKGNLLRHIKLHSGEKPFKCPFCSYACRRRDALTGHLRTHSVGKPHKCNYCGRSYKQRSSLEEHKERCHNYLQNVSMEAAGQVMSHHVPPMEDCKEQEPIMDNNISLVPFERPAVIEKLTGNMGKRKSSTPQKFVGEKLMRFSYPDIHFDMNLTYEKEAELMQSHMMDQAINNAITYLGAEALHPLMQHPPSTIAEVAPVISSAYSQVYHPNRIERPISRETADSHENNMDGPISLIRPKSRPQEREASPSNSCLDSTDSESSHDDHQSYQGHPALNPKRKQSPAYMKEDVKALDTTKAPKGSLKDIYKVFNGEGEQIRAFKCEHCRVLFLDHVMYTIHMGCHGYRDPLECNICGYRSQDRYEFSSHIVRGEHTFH
Sequence (Q96SW2 whole entry): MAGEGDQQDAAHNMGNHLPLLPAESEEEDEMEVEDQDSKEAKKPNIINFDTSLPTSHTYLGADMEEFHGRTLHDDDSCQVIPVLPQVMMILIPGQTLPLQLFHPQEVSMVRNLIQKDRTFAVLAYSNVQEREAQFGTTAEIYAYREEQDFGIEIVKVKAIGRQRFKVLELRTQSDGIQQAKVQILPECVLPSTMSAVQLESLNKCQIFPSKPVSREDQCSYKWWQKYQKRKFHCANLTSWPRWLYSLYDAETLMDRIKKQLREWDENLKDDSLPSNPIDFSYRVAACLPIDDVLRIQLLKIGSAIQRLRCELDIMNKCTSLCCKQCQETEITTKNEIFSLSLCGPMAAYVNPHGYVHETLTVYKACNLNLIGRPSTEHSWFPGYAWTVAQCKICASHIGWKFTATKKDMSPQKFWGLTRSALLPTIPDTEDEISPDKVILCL
Sequence (Q16531 whole entry partner): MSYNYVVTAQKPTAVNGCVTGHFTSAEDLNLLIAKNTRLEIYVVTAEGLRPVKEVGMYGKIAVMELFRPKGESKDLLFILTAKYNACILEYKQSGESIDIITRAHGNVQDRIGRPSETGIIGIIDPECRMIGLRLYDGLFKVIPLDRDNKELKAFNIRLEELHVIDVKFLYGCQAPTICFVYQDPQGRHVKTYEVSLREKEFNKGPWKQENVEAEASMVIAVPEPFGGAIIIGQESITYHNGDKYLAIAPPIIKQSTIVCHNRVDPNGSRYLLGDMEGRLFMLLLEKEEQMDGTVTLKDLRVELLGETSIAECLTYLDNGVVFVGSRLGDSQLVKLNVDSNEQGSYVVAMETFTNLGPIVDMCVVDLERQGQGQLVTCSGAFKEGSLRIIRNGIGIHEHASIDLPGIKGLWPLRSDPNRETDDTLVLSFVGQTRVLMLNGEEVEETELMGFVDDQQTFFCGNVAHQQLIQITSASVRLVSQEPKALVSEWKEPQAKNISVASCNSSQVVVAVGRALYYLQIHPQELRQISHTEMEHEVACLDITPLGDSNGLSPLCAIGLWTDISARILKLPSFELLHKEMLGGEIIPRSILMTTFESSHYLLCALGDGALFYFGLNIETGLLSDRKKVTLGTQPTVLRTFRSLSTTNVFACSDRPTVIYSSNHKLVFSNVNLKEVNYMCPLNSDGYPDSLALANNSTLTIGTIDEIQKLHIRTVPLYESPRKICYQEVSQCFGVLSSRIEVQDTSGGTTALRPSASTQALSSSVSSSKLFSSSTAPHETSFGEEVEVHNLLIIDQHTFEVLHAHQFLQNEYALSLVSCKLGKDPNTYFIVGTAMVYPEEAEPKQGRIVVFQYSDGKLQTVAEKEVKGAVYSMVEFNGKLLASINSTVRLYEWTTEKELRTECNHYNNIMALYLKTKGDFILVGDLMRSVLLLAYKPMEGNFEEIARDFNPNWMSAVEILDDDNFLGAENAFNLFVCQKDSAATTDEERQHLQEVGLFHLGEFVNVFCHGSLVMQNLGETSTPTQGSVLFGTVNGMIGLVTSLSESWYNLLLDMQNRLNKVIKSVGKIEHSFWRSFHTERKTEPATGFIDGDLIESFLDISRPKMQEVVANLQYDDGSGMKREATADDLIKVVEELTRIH
methodDescription: IKZF2 HiBiT Assay (Jurkat-IKZF2-HiBiT cell line)
Type: cell-based
conditionSummary: Jurkat-IKZF2-HiBiT cells, 24 hours; read-out: HiBit assay degradation analysis Dmax
I'd be grateful if you could share measured Dmax for these entries.

Request: State measured Dmax of the molecule COc1cccc(CN2CCC3(CC2)COc2c3ccc3c2CN(C2CCC(=O)NC2=O)C3=O)c1 (stereo not drawn) with IKZF2 (Homo sapiens (Human), UniProt Q96SW2+Q9UKS7).
Response: 40 to 60%

Request: System IKZF2 (Homo sapiens (Human), UniProt Q96SW2+Q9UKS7). Read-out Dmax. Item O=C1CCC(N2Cc3c(ccc4c3COC43CCN(Cc4cccc(-c5cc[nH]n5)c4)CC3)C2=O)C(=O)N1 (stereo not drawn) . Report value.
Response: 40 to 60%

Request: Param request: Dmax | system IKZF2 (Homo sapiens (Human), UniProt Q96SW2+Q9UKS7) | item O=C1CCC(N2Cc3c(ccc4c3OCC43CCN(Cc4cccc(-n5cccn5)c4)CC3)C2=O)C(=O)N1 (stereo not drawn)
Response: 60 to 80%

Request: Provide Dmax, tested on IKZF2 (Homo sapiens (Human), UniProt Q96SW2+Q9UKS7), for CNC(=O)c1cccc(CN2CCC3(CC2)COc2c3ccc3c2CN(C2CCC(=O)NC2=O)C3=O)c1 (stereo not drawn) .
Response: 40 to 60%

Request: Look up IKZF2 (Homo sapiens (Human), UniProt Q96SW2+Q9UKS7) data: Dmax of O=C1CCC(N2Cc3c(ccc4c3OCC43CCN(CC4CCCc5ccccc54)CC3)C2=O)C(=O)N1 (stereo not drawn) , then report it.
Response: 60 to 80%

Request: Answer briefly: Dmax recorded on IKZF2 (Homo sapiens (Human), UniProt Q96SW2+Q9UKS7) for CN(C(=O)c1cccc(CN2CCC3(CC2)COc2c3ccc3c2CN(C2CCC(=O)NC2=O)C3=O)c1)c1cccc(F)c1 (stereo not drawn)
Response: 40 to 60%

Request: Under IKZF2 (Homo sapiens (Human), UniProt Q96SW2+Q9UKS7), report Dmax for O=C1CCC(N2Cc3c(ccc4c3OCC43CCN(Cc4cnn(Cc5ccccc5Cl)c4)CC3)C2=O)C(=O)N1 (stereo not drawn)
Response: 60 to 80%

Request: Tell me Dmax of O=C1CCC(N2Cc3c(ccc4c3OCC43CCN(C[C@H]4C[C@@H]4c4ccccc4)CC3)C2=O)C(=O)N1 (relative stereo) when tested on IKZF2 (Homo sapiens (Human), UniProt Q96SW2+Q9UKS7).
Response: < 40%

Request: Using IKZF2 (Homo sapiens (Human), UniProt Q96SW2+Q9UKS7) as the test system, report measured Dmax of CS(=O)(=O)c1ccc(CN2CCC3(CC2)COc2c3ccc3c2CN(C2CCC(=O)NC2=O)C3=O)cc1 (stereo not drawn) .
Response: < 40%

---

subjectOfTest: IKZF2 (Homo sapiens (Human), UniProt Q96SW2+Q9UKS7)
methodDescription: IKZF2 HiBiT Assay (Jurkat-IKZF2-HiBiT cell line)
Format: cell-based
conditionSummary: Jurkat-IKZF2-HiBiT cells, 24 hours; read-out: HiBit assay degradation analysis Dmax
recordedEndpoint: Dmax

Request: // Input: COc1cc(CN2CCC3(CC2)COc2c3ccc3c2CN([C@H]2CCC(=O)NC2=O)C3=O)cc(-c2cnn(C)c2)c1 [Compound A280] . Output its Dmax only.
Response: > 80%

Request: Return reported Dmax. Input compound: O=C1CCC(N2Cc3c(ccc4c3OCC43CCN(Cc4ncn(-c5ccccc5)n4)CC3)C2=O)C(=O)N1 (stereo not drawn) [Compound A335]
Response: < 40%

Request: For O=C1CC[C@H](N2Cc3c(ccc4c3OCC43CCN(Cc4cccc(-c5cnn([C@H]6CCOC6)c5)c4)CC3)C2=O)C(=O)N1 [Compound A269] , write its Dmax.
Response: 60 to 80%
